Assay: chemical genetic growth profiling, strain panel (AID 1159580);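 further: tested at 20 µM; growth read once vehicle control cultures reached saturation at 30 °C; 1 = growth at the plate median or of vehicle wells; lower values mean less growth of the strain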
Settings: S. cerevisiae deletion strains, growth OD, locus YLR357W, strain rsc2, hits give low values
The whole screen tested about 5,500 compounds, of which about 2,000 (36%) were called active. Inconclusive results (about 18%) are left out. This is one part of the list.
Entries and their normalized growth
REPORTED_METRIC: normalized growth

>>> print(df.to_string())
                                   molecule  observed
0                          C=CCc1ccc(OC)cc1      1.01
1                       C=CCc1ccc(O)c(OC)c1     0.992
2  C=CC[C@]1(O)CCC2C3CCC4=CC(=O)CCC4=C3C=C[C@@]21C (stereo partly drawn)     0.999
